Where do these numbers come from? They come from patent US4213984A.

experiment.summary: acute toxicity after peroral administration to fasted white mice
Format: in vivo
condition.label: in vivo, po, mouse, observation period 14 days, read-out: LD50 peroral mgm/kg mouse
Give measured LD50 at 336 h for each item. Keep answers brief.

So what's the measured LD50 at 336 h for this one? CN1C(=O)c2ccccc2N(C(=O)CN2CCN(Cc3ccc4c(c3)OCO4)CC2)c2ncccc21 [G]
> 1500 mg/kg

So what's the measured LD50 at 336 h for this one? O=C1Nc2cccnc2N(C(=O)CN2CCN(CC34CC5CC(CC(C5)C3)C4)CC2)c2ccccc21 [D]
> 3000 mg/kg

So what's the measured LD50 at 336 h for this one? C=C(C)CN1CCN(CC(=O)N2c3ccccc3C(=O)Nc3cccnc32)CC1 [A]
> 3000 mg/kg

So what's the measured LD50 at 336 h for this one? O=C1Nc2cccnc2N(C(=O)CN2CCN(CC=Cc3ccccc3)CC2)c2ccccc21 [H]
~3000 mg/kg

So what's the measured LD50 at 336 h for this one? O=C1Nc2cccnc2N(C(=O)CN2CCN(Cc3ccc4c(c3)OCO4)CC2)c2ccccc21 [E]
> 3000 mg/kg

So what's the measured LD50 at 336 h for this one? CC1CN(C)CCN1CC(=O)N1c2ccccc2C(=O)Nc2cccnc21.Cl (centres unmarked) [F]
> 3000 mg/kg

So what's the measured LD50 at 336 h for this one? CC(C)=CCN1CCN(CC(=O)N2c3ccccc3C(=O)Nc3cccnc32)CC1.Cl.Cl [B]
> 1500 mg/kg

So what's the measured LD50 at 336 h for this one? CC(C)(C)CN1CCN(CC(=O)N2c3ccccc3C(=O)Nc3cccnc32)CC1 [C]
> 1500 mg/kg

====

System: stress ulcers in rats
experiment.summary: inhibiting effect on the formation of stress ulcers in rats (Takagi and Okabe), peroral
Format: in vivo
condition.label: po, rat, 12.5 mgm/kg, read-out: Ulcer inhibition in % (rat) after peroral administration of 12.5 mgm/kg
Give measured inhibition in vivo at 12.5 mg/kg for each item. Keep answers brief.
Form entry: value (%) — number only.

Find inhibition in vivo at 12.5 mg/kg (stress ulcers in rats) for the entry O=C1Nc2cccnc2N(C(=O)CN2CCN(CC=Cc3ccccc3)CC2)c2ccccc21
53

Find inhibition in vivo at 12.5 mg/kg (stress ulcers in rats) for the entry O=C1Nc2cccnc2N(C(=O)CN2CCN(CC34CC5CC(CC(C5)C3)C4)CC2)c2ccccc21
26

Find inhibition in vivo at 12.5 mg/kg (stress ulcers in rats) for the entry CN1C(=O)c2ccccc2N(C(=O)CN2CCN(Cc3ccc4c(c3)OCO4)CC2)c2ncccc21
21

Find inhibition in vivo at 12.5 mg/kg (stress ulcers in rats) for the entry O=C1Nc2cccnc2N(C(=O)CN2CCN(Cc3ccc4c(c3)OCO4)CC2)c2ccccc21
37

Find inhibition in vivo at 12.5 mg/kg (stress ulcers in rats) for the entry CC1CN(C)CCN1CC(=O)N1c2ccccc2C(=O)Nc2cccnc21.Cl (centres unmarked)
84

Find inhibition in vivo at 12.5 mg/kg (stress ulcers in rats) for the entry CC(C)(C)CN1CCN(CC(=O)N2c3ccccc3C(=O)Nc3cccnc32)CC1
39

Find inhibition in vivo at 12.5 mg/kg (stress ulcers in rats) for the entry CC(C)=CCN1CCN(CC(=O)N2c3ccccc3C(=O)Nc3cccnc32)CC1.Cl.Cl [B, dihydrochloride]
52

Find inhibition in vivo at 12.5 mg/kg (stress ulcers in rats) for the entry C=C(C)CN1CCN(CC(=O)N2c3ccccc3C(=O)Nc3cccnc32)CC1
32
